We begin with a simple list: items and their reported pKd.
Target: T1, human TL1A (human, UniProt O95150 72-251)
T1 construct: Antigen in SPR and ELISA; Also used here for places that print only 'TL1A' and for endogenous TL1A in human whole blood; also called TNFSF15
T1 sequence (looked up): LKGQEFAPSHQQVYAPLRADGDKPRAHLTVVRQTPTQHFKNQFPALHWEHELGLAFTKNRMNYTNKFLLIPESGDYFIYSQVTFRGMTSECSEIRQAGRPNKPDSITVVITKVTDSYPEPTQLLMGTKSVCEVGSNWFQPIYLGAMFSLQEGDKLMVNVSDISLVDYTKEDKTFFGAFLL
Experiment: SPR, Fab format, average
Just the number, please; pKd means minus log10 of the concentration in mol/L.

Illustrative cases are given below, each with its answer.
{"Binder": "Antibody 20 (Fab format) (Fab, V domains shown, High priority lead, Fab format) VH: QVQLQESGPGLVRPSQTLSLTCTVSGFDIQDTYMHWVRQRPGRGLEWMGRIEPASGHTKYNPSLKSRVTITRDTSKNQVSLRLSSVTAADTAVYYCARSGGMPDMWGQGSLVTVSS VL: DIQMTQSPSSLSASVGDRVTITCRASQGVMYMYWYQQKPGKAPKLLIYGASNLASGVPSRFSGSGSGTDFTFTISSLQPEDIATYYCQQWEGNPRTFGQGTKVEIK", "pKd": 9.12}
{"Binder": "Antibody 6 (Fab format) (Fab, V domains shown, High priority lead, Fab format) VH: QVQLQESGPGLVRPSQTLSLTCTVSGFDMADTYMHWVRQRPGRGLEWMGRIEPAGGHTKYNPSLKSRVTITRDTSKNQVSLRLSSVTAADTAVYYCVRSGGLPDMWGQGSLVTVSS VL: DIQMTQSPSSLSASVGDRVTITCRASQGVEYMYWYQQKPGKAPKLLIYSASNLASGVPSRFSGSGSGTDFTFTISSLQPEDIATYYCQQWEGNPRTFGQGTKVEIK", "pKd": 9.39}

Turning now to a further record.
Looking up Antibody 3 (Fab format) (Fab, V domains shown, High priority lead, Fab format) VH: QVQLQESGPGLVRPSQTLSLTCTVSGFDIQDTYMHWVRQRPGRGLEWMGRIEPAGGHTKYNPSLKSRVTITRDTSKNQVSLRLSSVTAADTAVYYCVRSGGLPDAWGQGSLVTVSS VL: DIQMTQSPSSLSASVGDRVTITCRASQGVRYMYWYQQKPGKAPKLLIYGASNLASGVPSRFSGSGSGTDFTFTISSLQPEDIATYYCQQWEGNPRTFGQGTKVEIK , I found its pKd recorded as 9.51
